# Test system: CMK
# assay-details: CellTox Green cytotoxicity fluorescence relative to DMSO vehicle (fold of vehicle RFU); higher = more cell death (loss of membrane integrity), active = 2 or more
# experimental-parameters: 1 µM; 24 h
Your reply should match one of these outcome classes. active, inactive

Please review the following examples before continuing.
1. CCOC(=O)C1=C(N)Oc2ccc(Br)cc2C1C(C#N)C(=O)OCC (stereo unspecified)
inactive
2. O=C1NC(=NCc2cccs2)S/C1=C\c1ccc2ncccc2c1
inactive
3. C=CC(=O)N1CCC(Oc2cc3c(Nc4ccc(Cl)c(Cl)c4F)ncnc3cc2OC)CC1 [Poziotinib]
inactive
4. Nc1nc(F)nc2c1ncn2[C@@H]1O[C@H](CO)[C@@H](O)[C@@H]1O [Fludarabine]
inactive
5. CN1CCN(CCCNc2ncc(Cl)c(-c3cc4c(C(=O)NC5CC5)cccc4s3)n2)CC1
inactive
6. C[C@H]1Oc2cc(cnc2N)-c2c(nn(C)c2C#N)CN(C)C(=O)c2ccc(F)cc21
inactive

Problem: Which outcome was assigned to CC[C@@]1(O)C(=O)OCc2c1cc1n(c2=O)Cc2cc3cc(O)ccc3nc2-1 [(S)-10-Hydroxycamptothecin] in this test?
Solution: inactive

Problem: # outcome recorded in this test, key = C=CC(=O)N1CCN(C(=O)CNc2cc(I)c(Cl)cc2O)CC1 [K-Ras(G12C) inhibitor 12]
Solution: inactive

Problem: Recorded test call requested for C=CCc1cccc(/C=N/NC(=O)CN2CCN(Cc3ccccc3)CC2)c1O
Solution: inactive

Problem: Please let me know the test result on file for O=C1CCC(N2C(=O)c3ccccc3C2=O)C(=O)N1 (stereo unspecified) [Thalidomide] .
Solution: inactive

Problem: Would you mind telling me which call this test gave CCO[C@@H]1OC(=O)C[C@@H]1NC(=O)[C@@H]1CCCN1C(=O)[C@@H](NC(=O)c1ccc(N)c(Cl)c1)C(C)(C)C ?
Solution: inactive

Problem: Given CCCCC(C=O)NC(=O)C(CC(C)C)NC(=O)C(CC(C)C)NC(C)=O (stereo unspecified) , state the outcome it received in this test.
Solution: active

Problem: Outcome logged for CC(=O)O/N=C1/C(c2c(O)[nH]c3cc(Br)ccc23)=Nc2ccccc21 [BIO-acetoxime] in this assay:
Solution: inactive

Problem: Dear colleague, could you share the recorded outcome for CCOC(=O)c1[nH]c2cc(Cl)ccc2c1C(C(=O)NC(C)(C)C)N(C=O)Cc1ccc(Cl)cc1 (stereo unspecified) when you have a moment?
Solution: inactive

Problem: GET /call?item= O=C(O)CSc1cc(NS(=O)(=O)c2ccc(Br)cc2)c2ccccc2c1O returns the recorded outcome of this test.
Solution: inactive

Problem: What did the test return for COc1nc(-c2ccc3c(c2)OCO3)n(-c2ccc(NC(=O)CSc3ccccc3)cc2)n1 [SecinH3] ?
Solution: inactive

Problem: Recorded call for Nc1ccccc1NC(=O)c1cnccn1 ?
Solution: inactive

Problem: Outcome logged for FC(F)(F)c1ccc(CNc2ccc(Cc3c[nH]c4ncc(Cl)cc34)cn2)cn1 [Pexidartinib] in this assay:
Solution: inactive

Problem: For CNC(=O)c1ccccc1Nc1cc(Nc2ccc(N3CCOCC3)cc2OC)ncc1C(F)(F)F , what call appears in the results of this test?
Solution: inactive

Problem: Hello, I am checking results. What call was entered for COc1nc(OCc2cccc(-c3ccccc3)c2C)ccc1CNCCNC(C)=O [PD-1/PD-L1 inhibitor 2] ?
Solution: inactive

Problem: Look up the recorded call for c1ccc2c(CCNc3ccc(Nc4ccncc4)cc3)c[nH]c2c1 [Serdemetan] in this test.
Solution: inactive
